system: IGROV-1; assay: NCI tumour cell line growth inhibition, 48 h
Calls of active or inactive are those of the source. Rule as the data show it: active = GI50 up to about 1.1 µM and inactive = higher.

>  <molecule>
Cc1c(/C=N/NC(=S)Nc2ccccc2Cl)c(=O)n(-c2ccccc2)n1C

>  <GI50>
40.3 µM (inactive)

$$$$
>  <molecule>
NCCSC(c1ccccc1)c1ccccc1

>  <GI50>
13.1 µM (inactive)

$$$$
>  <molecule>
N#Cc1ccc2[nH]c3c(c2c1)CC(=O)Nc1ccccc1-3

>  <GI50>
99.8 µM (inactive)

$$$$
>  <molecule>
N#CCC1COc2ccccc2O1 (stereo unspecified)

>  <GI50>
> 10 µM (inactive)

$$$$
>  <molecule>
c1ccc(-c2cc(-c3ccncc3)cc(-c3ccncc3)n2)cc1

>  <GI50>
> 100 µM (inactive)

$$$$
>  <molecule>
COc1ccc(NC(=O)/C(Cc2cc(=O)oc3cc(O)ccc23)=N\NC(C)(C)C)c(OC)c1

>  <GI50>
> 100 µM (inactive)

$$$$
>  <molecule>
CCC12CCC[C@@]13C=C[C@H](O3)C(C)(C)C2=O (stereo partly specified)

>  <GI50>
> 100 µM (inactive)

$$$$
>  <molecule>
O=C1NC(=S)NC(=O)C1=C(O)Nc1ccccc1

>  <GI50>
32 µM (inactive)

$$$$
>  <molecule>
Cc1ccccc1NC(=O)C1C(=O)N(c2ccccc2C)C(=O)/C1=N\NC(N)=O (stereo unspecified)

>  <GI50>
> 100 µM (inactive)

$$$$
>  <molecule>
Cc1ccc(C(=O)N(C2CCCCC2)C2CCCCC2)cc1/N=N/N(C)C

>  <GI50>
15.6 µM (inactive)

$$$$
>  <molecule>
O=C(O)CCC1COc2ccccc2O1 (stereo unspecified)

>  <GI50>
> 10 µM (inactive)

$$$$

----------
tested on: UO-31; test: NCI tumour cell line growth inhibition, 48 h
Activity calls are given as the source filed them. No stated cut-off is given here; in the data, active = GI50 up to about 1.1 µM and inactive = higher.
Labels: true (1) = active, false (0) = inactive

>  <molecule>
COc1ccc(C[C@@H]2OC3(C=CC(=O)C=C3)O[C@H]2Cc2ccc(OC)cc2)cc1

>  <tested system>
UO-31

>  <qualitative label>
true (1)

$$$$
>  <molecule>
CC1NC(=O)c2c(-c3ccccc3)nn(-c3ccccc3)c2NC1=O (centres undefined)

>  <tested system>
UO-31

>  <qualitative label>
false (0)

$$$$
>  <molecule>
C(=N\c1ccc(-c2nc3ccccc3[nH]2)cc1)/c1ccco1

>  <tested system>
UO-31

>  <qualitative label>
false (0)

$$$$
>  <molecule>
COc1cc2c(cc1C)NC(=O)/C2=C\c1cccnc1

>  <tested system>
UO-31

>  <qualitative label>
false (0)

$$$$
>  <molecule>
OC(COC(c1ccccc1)(c1ccccc1)c1ccccc1)C(O)CC1SCCS1 (centres undefined)

>  <tested system>
UO-31

>  <qualitative label>
false (0)

$$$$
>  <molecule>
CC1(C)CC[C@]2(C(=O)O)[C@H](O)C[C@]3(C)C(=CC[C@@H]4[C@@]5(C)CC[C@H](OC6OC(C(=O)O)C(O)C(O)C6O)C(C)(C)[C@@H]5CC[C@]43C)[C@@H]2C1 (some centres undefined)

>  <tested system>
UO-31

>  <qualitative label>
false (0)

$$$$
>  <molecule>
Cc1csc(N/C=C2\C(=O)Oc3ccccc3C2=O)n1

>  <tested system>
UO-31

>  <qualitative label>
false (0)

$$$$
>  <molecule>
NC(CCC(=O)O)C(=O)N1CCN(c2nc(N3CCCC3)c3nc(Cl)c(NCc4ccccc4)nc3n2)CC1 (centres undefined)

>  <tested system>
UO-31

>  <qualitative label>
false (0)

$$$$
>  <molecule>
COC(=O)c1sc(=S)sc1SCc1cccc(CSc2sc(=S)sc2C(=O)OC)c1

>  <tested system>
UO-31

>  <qualitative label>
false (0)

$$$$
>  <molecule>
O=C(N=C1N(c2ccccc2)C(=O)C(=O)N1c1ccccc1)c1ccccc1

>  <tested system>
UO-31

>  <qualitative label>
false (0)

$$$$
>  <molecule>
COc1ccc(/C=N/n2c(Cc3ccc(Cl)cc3)n[nH]c2=O)cc1

>  <tested system>
UO-31

>  <qualitative label>
false (0)

$$$$
>  <molecule>
COC(=O)/C(=C\c1cn(C(C)=O)c2ccccc12)P(=O)(OC)OC

>  <tested system>
UO-31

>  <qualitative label>
false (0)

$$$$
>  <molecule>
O[C@H]1[C@H](O)[C@@H](O)CN2CC[C@H](O)[C@H]12

>  <tested system>
UO-31

>  <qualitative label>
false (0)

$$$$
>  <molecule>
O=[N+]([O-])c1cccc(C2=NN(c3ccccc3)C3c4cc(Br)ccc4OCC23)c1 (centres undefined)

>  <tested system>
UO-31

>  <qualitative label>
false (0)

$$$$
>  <molecule>
CCC1(N=[N+]=[N-])C(=O)c2ccccc2N(c2ccccc2)C1=O (centres undefined)

>  <tested system>
UO-31

>  <qualitative label>
false (0)

$$$$
>  <molecule>
O=CNc1cccc2c3c([nH]c12)CCCCCC3

>  <tested system>
UO-31

>  <qualitative label>
false (0)

$$$$
>  <molecule>
O=C1/C(=C\c2ccccc2)CN(C(=O)CCN2CCCCC2)C/C1=C/c1ccccc1

>  <tested system>
UO-31

>  <qualitative label>
false (0)

$$$$
>  <molecule>
COC(=O)[C@@H]1C2OC(C)(C)OC2CN1C(=O)OCc1ccccc1 (some centres undefined)

>  <tested system>
UO-31

>  <qualitative label>
false (0)

$$$$
>  <molecule>
Cc1c(/C=N/NC(=S)Nc2ccccc2Cl)c(=O)n(-c2ccccc2)n1C

>  <tested system>
UO-31

>  <qualitative label>
false (0)

$$$$
>  <molecule>
Cc1ccc(-c2c(N)nc(NC#N)nc2CCC(=O)Nc2ccccc2[N+](=O)[O-])cc1

>  <tested system>
UO-31

>  <qualitative label>
false (0)

$$$$
>  <molecule>
CCOC(=O)C1(C#N)CC1

>  <tested system>
UO-31

>  <qualitative label>
false (0)

$$$$
>  <molecule>
O=C1CC(CC(O)C(O)CO)CC(=O)N1 (centres undefined)

>  <tested system>
UO-31

>  <qualitative label>
false (0)

$$$$
>  <molecule>
O=C(c1cccc2cc(O)ccc12)c1cn(CCN2CCOCC2)c2ccccc12

>  <tested system>
UO-31

>  <qualitative label>
false (0)

$$$$
>  <molecule>
CN(CCNC(=O)c1nn(-c2ccccc2)c2c1Cc1ccccc1-2)CCNC(=O)c1nn(-c2ccccc2)c2c1Cc1ccccc1-2

>  <tested system>
UO-31

>  <qualitative label>
false (0)

$$$$
>  <molecule>
Cn1nc(-c2ccccc2)c(C(=O)/C=C/c2ccccc2)c(N2CCOCC2)c1=O

>  <tested system>
UO-31

>  <qualitative label>
false (0)

$$$$
>  <molecule>
CN(Cc1cnc2nc(N)nc(N)c2n1)c1ccc(C(=O)NC(CCC(=O)NC(P(=O)(O)O)P(=O)(O)O)C(=O)O)cc1 (centres undefined)

>  <tested system>
UO-31

>  <qualitative label>
false (0)

$$$$
>  <molecule>
O=C1NC2=NOC(=O)NC2=NO1

>  <tested system>
UO-31

>  <qualitative label>
false (0)

$$$$
>  <molecule>
Cc1c(Cl)c(C)c(Cl)c(O)c1Cl

>  <tested system>
UO-31

>  <qualitative label>
false (0)

$$$$
>  <molecule>
CC(=O)OCC1=C2C(OC(=O)C(C)C)CC3(COC(C)=O)OC3/C=C\C3(C)OC3C2OC1=O (centres undefined)

>  <tested system>
UO-31

>  <qualitative label>
false (0)

$$$$
>  <molecule>
COc1cccc2c1Cc1cc(-c3ccccc3)[n+](C)n1-2

>  <tested system>
UO-31

>  <qualitative label>
false (0)

$$$$
>  <molecule>
C[C@H](CCC(=O)O)[C@H]1CC[C@H]2[C@@H]3C(=O)C[C@@H]4C[C@H](O)CC[C@]4(C)[C@H]3C[C@H](O)[C@]12C

>  <tested system>
UO-31

>  <qualitative label>
false (0)

$$$$
>  <molecule>
COc1ccc(NC(=O)C(=O)C2CNC(=O)NC2=O)c(OC)c1 (centres undefined)

>  <tested system>
UO-31

>  <qualitative label>
false (0)

$$$$
>  <molecule>
Cc1ccc(NC(=S)N/N=C(/c2ccccc2)c2ccccn2)cc1

>  <tested system>
UO-31

>  <qualitative label>
true (1)

$$$$
>  <molecule>
COc1cc2ccc(CC(=O)O)cc2cc1OC

>  <tested system>
UO-31

>  <qualitative label>
false (0)

$$$$
>  <molecule>
CC(=O)Nc1ccccc1C=C1c2ccccc2-c2ccccc21

>  <tested system>
UO-31

>  <qualitative label>
false (0)

$$$$
>  <molecule>
CSC1SCC2C(=O)N(C)C3(CC3C)C(=O)OCC(NC(=O)c3nc4ccccc4cc3O)C(=O)NC(C)C(=O)N(C)C1C(=O)N(C)C1(CC1C)C(=O)OCC(NC(=O)c1nc3ccccc3cc1O)C(=O)NC(C)C(=O)N2C (centres undefined)

>  <tested system>
UO-31

>  <qualitative label>
true (1)

$$$$
>  <molecule>
OC1(C2(c3ccc(Cl)cc3)CCCC2)c2ccccc2C2=NCCN21 (centres undefined)

>  <tested system>
UO-31

>  <qualitative label>
false (0)

$$$$
>  <molecule>
CCOC(=O)C1C(=O)CC(C)(O)C(C(=O)OCC)C1c1ccc(O)c(OC)c1 (centres undefined)

>  <tested system>
UO-31

>  <qualitative label>
false (0)

$$$$
>  <molecule>
Cc1ccc(C(=O)N(C2CCCCC2)C2CCCCC2)cc1/N=N/N(C)C

>  <tested system>
UO-31

>  <qualitative label>
false (0)

$$$$
